- Protocol Details: yeast display, Sf9 membrane polyspecificity reagent, FACS + sequencing; frameworks hold sequencing errors
Measured Attribute: polyreactivity (PSR sort gate)

A selection of reference data follows.
• QVQLVESGGGLVQAGGSLRLSCAASGSTFLYNAMGWYRQAPGKERELVAAITIGGGSTYYADSVKGRFTISRDNAKNTVYLQMNSLKPEDTAVYYCNKGSYYWWDPGSTYIDDNWGQGTQVTVSS = low polyreactivity
• QVQLVESGGGLVQAGGSLRLSCAASASIFDGYAMGWYRQAPGKERELVAAISKGGTRTYYADSVKGRFTISRDNAKNTVYLQMNSLKPEDSSVYYCNAYYRREPDDGDYDYWGQGTQVTVSS = high polyreactivity
• QVQLVESGGGLVQAGGSLRLSCAASGRIFGAYAMGWYRQAPGKERELVAAITSRGGNTYYADSVKGRFTISRDTAKNTVYLQMNSLKPEDTAVYSCAARHDKRRQYYVGQSAFDYWGQGTQVTVSS = low polyreactivity
• QVQLVESGGGLVQAGGSLRLSCAASGSTLARYAMGWYRQAPGKERELVAAISSDGRTYYADSVKGRFTISRDNAKNTVYLQIYSLKPEDTAVYYCATLRPYAYPQYDSWGQGTQVTVSS = high polyreactivity
• QVQLVESGGGLVQAGGSLRLSCAASGITFQRYAMGWYRQAPGKERELVAAISWSGGSTYYADSVKGRFTISRDNAKNTVYLQMNSLKPVDTAVYYCAAELSVSTSHGVDYWGQGTQVTVSS = high polyreactivity

Query (sequence): QVQLVESGGGLVQAGGSLRLSCAASGRTFAPNTMGWYRQAPGKERELVATISSGGSTNYADSVKGRFTISRDNAKNTVYLQMNSLKPEDTAVYYCAARYRIVYRSHWGFTSYDYWGQGTQVTVSS ; field requested: polyreactivity (PSR sort gate)
low polyreactivity

Which value of polyreactivity (PSR sort gate) has been reported for QVQVVESGGGLVQAGGSLRLSCAASGRIFTGYAMGWYSQAPGTERELVAAISRGGSTNYADSVKGRFTISRDNAKNTVYLQMNSLKPEDTAVYYCAAGVHWDRGDYWGQGTQVTVSS in the records?
low polyreactivity

Recorded polyreactivity (PSR sort gate) for QVQLVESGGGLVQAGGSLRLSCAASGSTFGSNDLGWYRQAPGQERELVAAITWSGGSTFYADSVKGRFTISRDNAKNTVYLQMNSLKPEDTALYSCAVSTEVNRYHAKYDYRGQGTQVTVSS , please?
low polyreactivity

Would you mind telling me what polyreactivity (PSR sort gate) value was observed for QVQLVESGGGLVQAGGSLRLSCAASGRTFPYYTMGWYRQAPGKERELVAAISRSGGSTYYADSVKGRFTISRDNAKNTVYLQMNSLKPEDTAVYYCAAGIYRYNRYWGYNYWGQGTQVTVSS ?
high polyreactivity

What does the data say about its polyreactivity (PSR sort gate)? Entry: QVQLVESGGGLVQAGGSLRLSCAASGSIIQGYAMGWYRQAPGKERELVAVITTSGGSTYYADSVKGRFTISRDNAKNTVYLQMNSLKPEDTAVYYCAVGLLVYSRTYIGQAYFRYNYWGQGTQVTVSS
high polyreactivity

What does the record list as polyreactivity (PSR sort gate) for QVQLVESGGGLVQAGGSLRLSCAASGSIFNGNAMGWYRQAPGKERELVAAITRRGGRTYYADSVKGRFTISRDNAKNTVYLQMNSLKPEDTAVYYCNAYSKAVQGGYYYWGQGTQVTVSS ?
high polyreactivity

polyreactivity (PSR sort gate) for QVQLVESGGGLVQAGGSLRLSCAASGGTFYRYAMGWYRQAPGKERELVAAISRGGSTTYADSVKGRFTISRDNAKNTVYLQMNSLKPEDTAVYYCAARYRCSLPAGLRLLGQGTQVTVSS ?
high polyreactivity

Requested read-out: polyreactivity (PSR sort gate). Entry: QVQLVESGGGLVQAGGSLRLSCAASGSTFYWNVMGWYRQAPGKERELVAAINRSDGSTYYADSVKGRFTISRDNAKNTVYLQMNSLKPEDTAVYFCNAVTKHPQSVPYAYGYWGQGTQVTVSS
high polyreactivity

Could you tell me which polyreactivity (PSR sort gate) is on file for QVQLVESGGGLFQAGGSLRLSCAASGRTFYPNAMGWYRQAPGKERELVAAISWSVGTTHYADSVKGRFTISRDNAKNSVYLQMLSLKPEDTAVYYCNARWYYGVYDYWGQGTQVTVSS ?
low polyreactivity

I'd like to know its polyreactivity (PSR sort gate). The sequence in question is QDQLVESGGGLVQAGGSLRLSCAASGRIFPAYVMGWYRQAPGKERELVATIDNGGGTYYADSVKGRFTISRDNAKNTVYLQMNSLKPEDTAVYYCARDRHVRWGLKMDYWGQGTQVTVSS
low polyreactivity

Record request: polyreactivity (PSR sort gate) value, item QVQLVESGGGLVQAGGSLRLSCAASGRTFVPNAMGWYRQAPGKERELVAAISDSGGSTYYADSVKGRFTISRDNAKNTVYLQMNSLKPEDTAVYYCATDVTTYVGWEHGFNYWGQGTQVTVSS
low polyreactivity

Returns the measured polyreactivity (PSR sort gate) for the input sequence. Input: QVQLVESGGGLVQAGGSLRLSCAASGTTFAGNAMGWYRQAPGKERELVAAITFSGGRTDYADSVKGCFTISRDNAKNTVYLQMNSLKPEDTAVYYCAAPADDTVHYQNYYWGQGTQVTVSS
low polyreactivity

Request the reported polyreactivity (PSR sort gate) associated with QVQLVESGGGLVQAGGSLRLSCAACGFTIRRYAKGWYRQAPGKERELVAAITTGGSTYYADSVKGRFTISRDNAKNTVYFQMNSLKPEETAVYDCAALYPYKQYRLGYDSWGQGTQVTVSS
high polyreactivity

Which polyreactivity (PSR sort gate) is listed for QVQLEDSGGGLDQAGVSLRLSCAASGSTFLLYAMVGYRQAPGKERELVAAISRSSTSTYYADSVKGRFTISRDNAKNTVYLQMNSLKPEDTAVYYCAAVVTVQYSQPYDHWGQGTQVTVSS ?
high polyreactivity

Data request, read-out polyreactivity (PSR sort gate), for QVQLVESGGGLVQAGGSLRLSCAASGRTFTYYAMGWYRQAPGKERELVAAIRYTGGSTHYADSVKGRFTISRDNAKNTVYLQIHSLKPEDTAVYYCGARRAYTRGGTVYFGYYYWGQGTQVTVSS
high polyreactivity

Reported polyreactivity (PSR sort gate), sequence QVQLVESGGGLVQAGGSLRLSCAASGIRFAQYTMGGYRQAHGKESELVAAINRNGGSTYYADSVKGRFTISRDNAKNTVYLQMNSLKPEDTPVYYCNADALGFRYDYWGQGTQVTVSS : ____
low polyreactivity

Reference source: the nanobody polyreactivity screen of Harvey et al. (2022)
